Numbers sourced from the supplement of paper PMC11451515.

Collected cell viability values appear next to each entry.
test system: NOMO1; test: cell viability relative to DMSO control; higher = less cytotoxic; conditions: RPMI 5 mM glucose + 10% FBS; 48 h; 46.1 µM
Return type: number; implicit unit %.

INPUT: So what does the record say about cell viability for CCOc1cc2ncc(C#N)c(Nc3ccc(F)c(Cl)c3)c2cc1NC(=O)/C=C/CN(C)C ?
OUTPUT: 10.4

INPUT: So what does the record say about cell viability for C[N]1C=C(C2=CC=CC=C12)\C3=C(\C(=O)NC3=O)C4=C[N](C5CCN(CC5)CC6=NC=CC=C6)C7=C4C=CC=C7 ?
OUTPUT: 120

INPUT: So what does the record say about cell viability for OC1=CC=C(C=C1)\C2=C\OC3=C(C(=CC(=C3)O)O)C2=O ?
OUTPUT: 110

INPUT: So what does the record say about cell viability for CC1=C(/C=C/C(C)=C/C=C/C(C)=C\C(=O)O)C(C)(C)CCC1 ?
OUTPUT: 80.5

INPUT: So what does the record say about cell viability for [O-]C(=O)C/1=N/C(=O)NC(=O)N1 ?
OUTPUT: 93.1

---

system: SEM cells; experiment: cell viability relative to DMSO control; higher = less cytotoxic; settings: RPMI 5 mM glucose + 10% dialyzed FBS; 48 h; 0.0632 µM
observable: cell viability
Give your result as the value with the unit written after it.

Please review the following examples before continuing.
CCOc1cc2ncc(C#N)c(Nc3ccc(OCc4ccccn4)c(Cl)c3)c2cc1NC(=O)/C=C/CN(C)C	121%
CCN1\C=C(\C(O)=O)C(=O)C2=C1N=C(N3CCNCC3)C(=C2)F	78.1%
CCOc1cc2ncc(C#N)c(Nc3ccc(F)c(Cl)c3)c2cc1NC(=O)/C=C/CN(C)C	126%

INPUT: So what does the record say about cell viability for CC(C)N(C[C@H]1O[C@@H](n2cnc3c(N)ncnc32)[C@H](O)[C@@H]1O)[C@H]1C[C@@H](CCc2nc3cc(C(C)(C)C)ccc3[nH]2)C1 ?
OUTPUT: 92.8%

INPUT: So what does the record say about cell viability for CC1(CN2CCC(n3c(=O)[nH]c4ccccc43)CC2)OCc2ccccc2-n2cccc21 (stereo not drawn) ?
OUTPUT: 113%

INPUT: So what does the record say about cell viability for O=C/1NC(=O)C(=C1C2=CN=C3C=CC=C[N]23)/C4=C[N]5CCN(CC6=C5C4=CC=C6)C(=O)N7CCOCC7 ?
OUTPUT: 17.1%

INPUT: So what does the record say about cell viability for Cc1cn([C@H]2C=C[C@@H](CO)O2)c(=O)[nH]c1=O ?
OUTPUT: 118%

INPUT: So what does the record say about cell viability for C=C1C(=O)OC(CCCCCCCC)C1C(=O)O (stereo not drawn) ?
OUTPUT: 120%

---

tested on: SEM cells; experiment: cell viability relative to DMSO control; higher = less cytotoxic; details: HPLM + 10% dialyzed FBS; 48 h; 0.0632 µM
Collected cell viability values appear next to each entry.
Give your result as the value with the unit written after it.

Please review the following examples before continuing.
C[C@@H]1C/C=C/C=C/C=C/C=C/[C@@H](O[C@@H]2O[C@H](C)[C@@H](O)[C@H](N)[C@@H]2O)C[C@@H]2O[C@](O)(C[C@@H](O)C[C@@H]3O[C@H]3/C=C/C(=O)O1)C[C@H](O)[C@H]2C(=O)O	131%
CN1CCN(c2c(F)cc3c(=O)c(C(=O)O)cn(CCF)c3c2F)CC1	108%
CC1=C(/C=C/C(C)=C/C=C/C(C)=C\C(=O)O)C(C)(C)CCC1	98.1%
N#CC(c1ccnc(NCCc2cccnc2)n1)c1nc2ccccc2s1 (configuration not stated)	126%
ClC1=CC=C2N/C3=N/C(=O)CN3CC2=C1Cl	126%

INPUT: So what does the record say about cell viability for CCN1\C=C(\C(O)=O)C(=O)C2=C1N=C(N3CCNCC3)C(=C2)F ?
OUTPUT: 84.8%

INPUT: So what does the record say about cell viability for CC(=O)OC[C@H]1O[C@@H]([S-])[C@H](OC(C)=O)[C@@H](OC(C)=O)[C@@H]1OC(C)=O.CCP(CC)CC.[Au+] ?
OUTPUT: 73.6%

---

tested on: SEM cells; assay: cell viability relative to DMSO control; higher = less cytotoxic; details: RPMI 5 mM glucose + 10% FBS; 48 h; 0.569 µM
Collected cell viability values appear next to each entry.

Please review the following examples before continuing.
O=S(=O)([O-])CCS.[Na+]	109%
COc1cccc2c1C(=O)c1c(O)c3c(c(O)c1C2=O)C[C@@](O)(C(=O)CO)C[C@@H]3O[C@H]1C[C@H](N)[C@H](O[C@H]2CCCCO2)[C@H](C)O1	66.6%
O=C(CC12CC3CC(CC(C3)C1)C2)Nc1cccc2nc(NCCNCCO)ccc12	94.4%

INPUT: So what does the record say about cell viability for OC[C@H]1O[C@H](C[C@@H]1O)N2\C=C(F)/C(=O)NC2=O ?
OUTPUT: 86.9%

INPUT: So what does the record say about cell viability for O=[N+]([O-])c1ncc[nH]1 ?
OUTPUT: 87.2%

---

Collected cell viability values appear next to each entry.
system: SEM cells; assay: cell viability relative to DMSO control; higher = less cytotoxic; conditions: RPMI 5 mM glucose + 10% FBS; 48 h; 15.4 µM
Return type: number; implicit unit %.

Please review the following examples before continuing.
COc1cc([C@@H](CC(=O)O)c2ccc(C)c(CN3C[C@@H](C)Oc4ccccc4[S+]3(=O)[O-])c2)cc2nnn(C)c12	18.1
C[C@@H]1CCN(C(=O)CC#N)C[C@@H]1N(C)c1ncnc2[nH]ccc12	90.7
C[C@H]1C[C@H]2[C@@H]3CC[C@](O)(C(=O)CO)[C@@]3(C)C[C@H](O)[C@@H]2[C@@]\4(C)/C=C\C(=O)\C=C14	51.2

INPUT: So what does the record say about cell viability for C[C@@H]1O[C@@H](O[C@H]2C[C@@H](O)[C@]3(CO)[C@H]4[C@H](O)C[C@]5(C)[C@@H](C6=CC(=O)OC6)CC[C@]5(O)[C@@H]4CC[C@]3(O)C2)[C@H](O)[C@H](O)[C@H]1O ?
OUTPUT: 7.1

INPUT: So what does the record say about cell viability for OC1=CC=C(C=C1)\C2=C\OC3=C(C(=CC(=C3)O)O)C2=O ?
OUTPUT: 72.7

INPUT: So what does the record say about cell viability for CCOc1cc2ncc(C#N)c(Nc3ccc(F)c(Cl)c3)c2cc1NC(=O)/C=C/CN(C)C ?
OUTPUT: 11.5

---

Collected cell viability values appear next to each entry.
system: SEM cells; assay: cell viability relative to DMSO control; higher = less cytotoxic; details: HPLM + 10% dialyzed FBS; 48 h; 1.71 µM
Return type: number; implicit unit %.

O=C1\C=C/C=C2/[C@H]3CNC[C@H](C3)CN12	104
COC(=O)Nc1nc2cc(C(=O)c3ccc(F)cc3)ccc2[nH]1	40.1
CCOc1cc2ncc(C#N)c(Nc3ccc(OCc4ccccn4)c(Cl)c3)c2cc1NC(=O)/C=C/CN(C)C	9.21

Next, consider the following compound.
INPUT: So what does the record say about cell viability for CC(C)N(C[C@H]1O[C@@H](n2cnc3c(N)ncnc32)[C@H](O)[C@@H]1O)[C@H]1C[C@@H](CCc2nc3cc(C(C)(C)C)ccc3[nH]2)C1 ?
OUTPUT: 100

---

tested on: SEM cells; assay: cell viability relative to DMSO control; higher = less cytotoxic; conditions: HPLM + 10% dialyzed FBS; 48 h; 0.000781 µM
observable: cell viability (%)
Return type: number; implicit unit %.

Please review the following examples before continuing.
CC(C)=CCC/C(C)=C/CC/C(C)=C/CC/C(C)=C/CC/C(C)=C/CC/C(C)=C/CC/C(C)=C/CC/C(C)=C/CC/C(C)=C/CO	94.8
CC(=O)c1cnc2ccc(-c3cc(Cl)c(O)c(Cl)c3)nc2c1N[C@H]1CC[C@H](CN(C)C)CC1	110
CC(C)(F)C[C@H](N[C@@H](c1ccc(-c2ccc([S+](C)(=O)[O-])cc2)cc1)C(F)(F)F)C(=O)NC1(C#N)CC1	88.3
O=C(Nc1nnc(-c2ccco2)o1)c1cc(-c2ccccc2)nc2ccccc12	87.5
CCOC(=O)[C@@]1(CCCCCCOc2ccc(Cl)cc2)CO1	95.4

INPUT: Record lookup: for SEM cells, what cell viability belongs to C[C@H]1C[C@H]2[C@@H]3CC[C@](O)(C(=O)CO)[C@@]3(C)C[C@H](O)[C@@H]2[C@@]\4(C)/C=C\C(=O)\C=C14 ?
OUTPUT: 78.4

INPUT: Record lookup: for SEM cells, what cell viability belongs to COc1ccc(C(=O)c2c(C)n(CCN3CCOCC3)c3ccccc23)cc1 ?
OUTPUT: 83.5

INPUT: Record lookup: for SEM cells, what cell viability belongs to COc1cc(CCc2cc(NC(=O)c3ccc(N4C[C@@H](C)N[C@@H](C)C4)cc3)n[nH]2)cc(OC)c1 ?
OUTPUT: 109

INPUT: Record lookup: for SEM cells, what cell viability belongs to CC(C)(S)[C@@H](N)C(=O)O ?
OUTPUT: 75.7

INPUT: Record lookup: for SEM cells, what cell viability belongs to COC(=O)Nc1nc2cc(C(=O)c3ccc(F)cc3)ccc2[nH]1 ?
OUTPUT: 103
